# TARGET OR TEST SYSTEM: T1, Biotinylated CD3-specific binding domain SEQ ID NO: 13 (biotinylated (site not stated))
# T1 construct: Ligand on the neutravidin (NLC) SPR chip; The same domain is the CD3-specific domain of TCE #1
# T1 chain: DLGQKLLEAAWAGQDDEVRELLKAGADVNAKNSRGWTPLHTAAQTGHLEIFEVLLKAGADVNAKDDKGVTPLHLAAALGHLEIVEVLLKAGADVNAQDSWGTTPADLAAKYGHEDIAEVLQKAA
# MEASUREMENT PROTOCOL: SPR (ProteOn XPR36), 33 C, multi-trace; biotinylated ligand on chip, binder as analyte
PROPERTY: koff (s⁻¹)
Please respond with the number in s⁻¹ and leave the unit unwritten.

Need koff of Binder #3 (designed binder) MRGSHHHHHHGSDLGKKLLQAARAGQLDEVRELLKAGADVNAKDFKGLTPLHLAAAHGHLEIVEVLLKAGADVNAKDVYGWTPLHWAAAKGHLEIVEVLLKAGADVNAKDWLGITPLHLAASHGHLEIVEVLLKAGADVNAQDKSGKTPADLAARAGHQDIAEVLQKAA , thanks.
2.8e-05
